# Tested on: Mus musculus
# ASSAY_PROTOCOL: Survival of mice to 30-day postinfection with Plasmodium berghei upon 10 mg/kg upon subcutaneous dose was determined
# Format: functional
REPORTED_PROPERTY: log10(Survival) (log10 of the value in days)
// stored as log10 of Survival expressed in days

# example entries with known answers
| COMPOUND | MEASUREMENT |
| --- | --- |
| CC(C)(C)C1CCC2(CC1)OOC1(O2)C2CC3CC(C2)CC1C3 (stereo not given) | 0.72 |
| CC(C)C1CCC2(CC1)OOC1(O2)C2CC3CC(C2)CC1C3 (stereo not given) | 0.95 |

For every item below, please supply its log10(Survival).
1. c1ccc(C2CCC3(CC2)OOC2(O3)C3CCCC2CCC3)cc1 (stereo not given)
2. CCCC1CCC2(CC1)OOC1(O2)C2CC3CC(C2)CC1C3 (stereo not given)
3. c1ccc(C2CCC3(CC2)OOC2(O3)C3CC4CC(C3)CC2C4)cc1 (stereo not given)

1. 0.70
2. 1.22
3. 1.23

For every item below, please supply its log10(Survival).
1. c1ccc(C2(c3ccccc3)CCC3(CC2)OOC2(O3)C3CC4CC(C3)CC2C4)cc1 (stereo not given)
2. CC1(C)CC(C)(C)CC2(C1)OOC1(O2)C2CC3CC(C2)CC1C3 (stereo not given)
3. OC1CCC2(CC1)OOC1(O2)C2CC3CC(C2)CC1C3 (stereo not given)
4. CC1(C)CCC2(CC1)OOC1(O2)C2CC3CC(C2)CC1C3 (stereo not given)
5. C[C@H]1[C@H](OC(=O)CCC(=O)O)O[C@@H]2O[C@@]3(C)CC[C@H]4[C@H](C)CC[C@@H]1[C@@]24OO3 [ARTESUNATE]

1. 0.76
2. 1.99
3. 0.94
4. 1.07
5. 0.83

* * *

# ASSAY_PROTOCOL: Plasma half life period after intravenous administration ( 20 mg/kg )
# EXPERIMENTAL_CONTEXT: rat
REPORTED_PROPERTY: half-life
Note: state the figure and append the unit.

Given the compound C[C@H]1[C@@H](O)O[C@@H]2O[C@@]3(C)CC[C@H]4[C@H](C)CC[C@@H]1[C@@]24OO3 [ARTENIMOL] , what is its reported half-life?
26 min
